Just for reference, ChEMBL document CHEMBL1135917 is where these values come from.

molecular target: Somatostatin receptor type 5 (Homo sapiens); assay: Binding affinity of human Somatostatin receptor type 5 (hsst5) by the displacement of [125I]- Tyr11 somatostatin-14 in CHO-K1 cells; type: cell-based
Sequence (P35346 whole entry): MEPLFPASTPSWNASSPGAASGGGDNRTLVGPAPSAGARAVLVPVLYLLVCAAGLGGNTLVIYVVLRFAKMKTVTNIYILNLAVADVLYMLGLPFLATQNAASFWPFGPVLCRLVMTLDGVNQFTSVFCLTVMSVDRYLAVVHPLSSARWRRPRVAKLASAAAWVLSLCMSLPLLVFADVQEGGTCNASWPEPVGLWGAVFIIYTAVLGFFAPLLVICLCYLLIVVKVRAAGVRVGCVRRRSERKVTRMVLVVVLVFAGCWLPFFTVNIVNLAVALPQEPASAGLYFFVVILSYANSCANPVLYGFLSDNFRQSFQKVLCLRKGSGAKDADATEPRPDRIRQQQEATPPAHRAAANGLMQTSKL
pIC50: −log10 of the molar value. *1 amine or outer side, *2 acyl side, *3 side chain or, on linkers, in order; H or OH if unused. Where a SMILES comes first, the peptide text is derived from it. Bridges are numbered along the chain shown (N, C = ends). [ ]: non-standard residue; d: D form. N(2-mercaptoethyl)Gly = O=C(CN(CCS[*:3])[*:1])[*:2]
MEASURED ATTRIBUTE: pIC50

Examples with answers:
- COMPOUND: "C[C@@H](O)[C@@H]1NC(=O)[C@H](CCCCN)NC(=O)[C@@H](Cc2c[nH]c3ccccc23)NC(=O)[C@H](Cc2c[nH]c3ccccc23)NC(=O)[C@H](Cc2ccccc2)NC(=O)[C@@H](N)CSSCCN(CC(N)=O)C(=O)[C@H](Cc2ccccc2)NC1=O (H-CFW[dW]KTF[N(2-mercaptoethyl)Gly]-NH2; disulfide 1-8)"
  VALUE REPORTED: 8.92
- COMPOUND: "C[C@@H](O)[C@@H]1NC(=O)[C@H](CCCCN)NC(=O)[C@@H](Cc2c[nH]c3ccccc23)NC(=O)[C@H](Cc2c[nH]c3ccccc23)NC(=O)[C@H](Cc2ccccc2)NC(=O)CCCNC(=O)CCCN(CC(N)=O)C(=O)[C@H](Cc2ccccc2)NC1=O"
  VALUE REPORTED: 9.00

[I] C[C@@H](O)[C@@H]1NC(=O)[C@H](CCCCN)NC(=O)[C@@H](Cc2c[nH]c3ccccc23)NC(=O)[C@H](Cc2c[nH]c3ccccc23)NC(=O)[C@H](Cc2ccccc2)NC(=O)CCSSCCN(CC(N)=O)C(=O)[C@H](Cc2ccccc2)NC1=O
[II] C[C@@H](O)[C@@H]1NC(=O)[C@H](CCCCN)NC(=O)[C@@H](Cc2c[nH]c3ccccc23)NC(=O)[C@H](Cc2c[nH]c3ccccc23)NC(=O)[C@H](Cc2ccccc2)NC(=O)CNCCSSCCN(CC(N)=O)C(=O)[C@H](Cc2ccccc2)NC1=O
stdin: Sort I and II by pIC50 descending and give the first. Which one? Tell me its label.
stdout: I
(I: 8.55, II: 8.11)

----------
experiment: Half life in renal homogenate; type: ADME, tissue-based
*1 amine or outer side, *2 acyl side, *3 side chain or, on linkers, in order; H or OH if unused. Where a SMILES comes first, the peptide text is derived from it. Bridges are numbered along the chain shown (N, C = ends). [ ]: non-standard residue; d: D form. N(2-mercaptoethyl)Gly = O=C(CN(CCS[*:3])[*:1])[*:2]
MEASURED ATTRIBUTE: half-life (h)
Report as a plain number; the unit h is understood.

stdin: Consider the compound shown here: C[C@@H](O)[C@@H]1NC(=O)[C@H](CCCCN)NC(=O)[C@@H](Cc2c[nH]c3ccccc23)NC(=O)[C@H](Cc2c[nH]c3ccccc23)NC(=O)[C@H](Cc2ccccc2)NC(=O)[C@@H](N)CSSCCN(CC(N)=O)C(=O)[C@H](Cc2ccccc2)NC1=O (H-CFW[dW]KTF[N(2-mercaptoethyl)Gly]-NH2; disulfide 1-8) What is its recorded half-life?
stdout: 3

----------
biological target: Somatostatin receptor type 2 (Homo sapiens); experiment: Binding affinity of human Somatostatin receptor type 2 (hsst2) by the displacement of [125I]- Tyr11 somatostatin-14 in CHO-K1 cells; assay type: cell-based
Sequence (P30874 whole entry): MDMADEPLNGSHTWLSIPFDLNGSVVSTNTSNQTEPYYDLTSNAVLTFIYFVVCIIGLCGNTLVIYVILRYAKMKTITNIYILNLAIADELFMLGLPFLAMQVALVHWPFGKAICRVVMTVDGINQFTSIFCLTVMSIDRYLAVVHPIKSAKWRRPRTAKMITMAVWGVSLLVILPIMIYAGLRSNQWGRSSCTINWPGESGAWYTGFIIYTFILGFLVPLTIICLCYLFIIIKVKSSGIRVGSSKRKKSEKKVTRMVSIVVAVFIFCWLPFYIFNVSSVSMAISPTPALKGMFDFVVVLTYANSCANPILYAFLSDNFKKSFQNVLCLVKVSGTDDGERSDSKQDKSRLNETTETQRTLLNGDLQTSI
*1 amine or outer side, *2 acyl side, *3 side chain or, on linkers, in order; H or OH if unused. Where a SMILES comes first, the peptide text is derived from it. Bridges are numbered along the chain shown (N, C = ends). [ ]: non-standard residue; d: D form. N(2-mercaptoethyl)Gly = O=C(CN(CCS[*:3])[*:1])[*:2]
MEASURED ATTRIBUTE: IC50 (nM)

- MOLECULE: "C[C@@H](O)[C@@H]1NC(=O)[C@H](CCCCN)NC(=O)[C@@H](Cc2c[nH]c3ccccc23)NC(=O)[C@H](Cc2c[nH]c3ccccc23)NC(=O)[C@H](Cc2ccccc2)NC(=O)[C@@H](N)CSSCCN(CC(N)=O)C(=O)[C@H](Cc2ccccc2)NC1=O (H-CFW[dW]KTF[N(2-mercaptoethyl)Gly]-NH2; disulfide 1-8)"
  IC50, nM: 5.2

[A] C[C@@H](O)[C@@H]1NC(=O)[C@H](CCCCN)NC(=O)[C@@H](Cc2c[nH]c3ccccc23)NC(=O)[C@H](Cc2c[nH]c3ccccc23)NC(=O)[C@H](Cc2ccccc2)NC(=O)CCSSCCN(CC(N)=O)C(=O)[C@H](Cc2ccccc2)NC1=O
[B] C[C@@H](O)[C@@H]1NC(=O)[C@H](CCCCN)NC(=O)[C@@H](Cc2c[nH]c3ccccc23)NC(=O)[C@H](Cc2c[nH]c3ccccc23)NC(=O)[C@H](Cc2ccccc2)NC(=O)CSSCCN(CC(N)=O)C(=O)[C@H](Cc2ccccc2)NC1=O
stdin: Field: lower IC50 | Options: A / B State the label of the item chosen.
stdout: A
(A: 1.3 nM, B: 28.7 nM)

----------
Overview of reported pIC50 across a group of compounds:
target: Somatostatin receptor type 3 (Homo sapiens, UniProt P32745); experiment: Binding affinity of human Somatostatin receptor type 3 (hsst3) by the displacement of [125I]- Tyr11 somatostatin-14 in CHO-K1 cells; type: cell-based
Sequence (P32745 whole entry): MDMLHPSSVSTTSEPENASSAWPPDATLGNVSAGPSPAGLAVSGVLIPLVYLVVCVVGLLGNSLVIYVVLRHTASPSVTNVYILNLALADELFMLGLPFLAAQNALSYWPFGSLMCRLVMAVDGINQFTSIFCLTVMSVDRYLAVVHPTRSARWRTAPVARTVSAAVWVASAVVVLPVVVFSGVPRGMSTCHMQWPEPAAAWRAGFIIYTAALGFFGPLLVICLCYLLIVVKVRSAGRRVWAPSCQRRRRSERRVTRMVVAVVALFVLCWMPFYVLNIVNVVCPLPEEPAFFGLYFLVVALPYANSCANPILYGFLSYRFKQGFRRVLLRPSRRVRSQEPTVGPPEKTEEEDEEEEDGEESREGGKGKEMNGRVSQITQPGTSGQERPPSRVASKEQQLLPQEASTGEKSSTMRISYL
pIC50: −log10 of the molar value.

- TEST SMILES: "C[C@@H](O)[C@@H]1NC(=O)[C@H](CCCCN)NC(=O)[C@@H](Cc2c[nH]c3ccccc23)NC(=O)[C@H](Cc2c[nH]c3ccccc23)NC(=O)[C@H](Cc2ccccc2)NC(=O)CNCCSSCCN(CC(N)=O)C(=O)[C@H](Cc2ccccc2)NC1=O"
  pIC50: "< 7.00"
- TEST SMILES: "C[C@@H](O)[C@@H]1NC(=O)[C@H](CCCCN)NC(=O)[C@@H](Cc2c[nH]c3ccccc23)NC(=O)[C@H](Cc2c[nH]c3ccccc23)NC(=O)[C@H](Cc2ccccc2)NC(=O)CCSSCCN(CC(N)=O)C(=O)[C@H](Cc2ccccc2)NC1=O"
  pIC50: "< 7.00"

Moving on to the next compound.
stdin: Please give the measured pIC50 for this compound: `C[C@@H](O)[C@@H]1NC(=O)[C@H](CCCCN)NC(=O)[C@@H](Cc2c[nH]c3ccccc23)NC(=O)[C@H](Cc2c[nH]c3ccccc23)NC(=O)[C@H](Cc2ccccc2)NC(=O)CCCNC(=O)CCCN(CC(N)=O)C(=O)[C@H](Cc2ccccc2)NC1=O`
stdout: < 7.00
